Below: a set of entries, each annotated with reported GI50.
Tested on: PC-3
ASSAY METHOD TEXT: NCI tumour cell line growth inhibition, 48 h
Activity calls are given as the source filed them. No stated cut-off is given here; in the data, active = GI50 up to about 1.1 µM and inactive = higher.

[
  {
    "MOLECULE": "CC(C)(C)OC(=O)N1[C@@H]2Cc3ccc(N)cc3[C@@]1(C)c1ccccc12",
    "TARGET OR SYSTEM": "PC-3",
    "GI50": "29.9 µM (inactive)"
  },
  {
    "MOLECULE": "Cc1ccnc2c1ccc1nc3ccccc3n12",
    "TARGET OR SYSTEM": "PC-3",
    "GI50": "> 100 µM (inactive)"
  },
  {
    "MOLECULE": "NC12CC3CC4C1CC1CC2C(C3)C4(N)C1",
    "TARGET OR SYSTEM": "PC-3",
    "GI50": "> 100 µM (inactive)"
  }
]

For the next question, use this molecule.
State GI50 on PC-3. Entry: CCC(=O)N(c1ccccc1)C(C)CN1CCC(O)(c2ccccc2)CC1 (centres undefined)
> 100 µM (inactive)
